These entries and their values trace back to PubChem BioAssay.

subject-of-test: Fibroblast growth factor 10 (Homo sapiens) (UniProt O15520)
Sequence (O15520 whole entry, looked up): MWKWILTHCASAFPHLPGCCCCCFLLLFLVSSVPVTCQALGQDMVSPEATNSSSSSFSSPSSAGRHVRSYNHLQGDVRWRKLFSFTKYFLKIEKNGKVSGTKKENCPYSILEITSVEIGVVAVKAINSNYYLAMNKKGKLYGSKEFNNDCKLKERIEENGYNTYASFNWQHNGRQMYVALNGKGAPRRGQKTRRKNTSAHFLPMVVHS
assay-info: FGF10 binders on small-molecule microarrays, primary screen, biochemical, small-molecule microarray, 635 nm fluorescence (AID 1102)
assay-conditions: FGF10 binding, fluorescence 635 nm, higher = more signal
measured-parameter: composite z-score
Numbers only.

INSERT INTO assay_data (compound, subject_of_test, measured_parameter, readout_value) VALUES
  ('COCCCNC(=O)[C@@]1(c2ccc([N+](=O)[O-])cc2)CC(=O)N(C(C)C)[C@@H]1c1ccc(CO)cc1', 'Fibroblast growth factor 10 (Homo sapiens) (UniProt O15520)', 'composite z-score', -0.512),
  ('COC(=O)C(CC#Cc1ccc2c(c1)[C@]1(C(=O)N2)[C@H](c2ccc(OCCO)cc2)N2[C@H](c3ccccc3)[C@H](c3ccccc3)OC(=O)[C@H]2[C@@H]1C(=O)N1CCN(c2ncccn2)CC1)C(=O)OC', 'Fibroblast growth factor 10 (Homo sapiens) (UniProt O15520)', 'composite z-score', 1.14),
  ('O=C1O[C@H](c2ccccc2)[C@H](c2ccccc2)N2[C@H]1[C@@H](C(=O)Nc1nc3ccccc3s1)[C@]1(C(=O)Nc3ccc(C#CC4=CCCCC4)cc31)[C@H]2c1ccc(O)cc1', 'Fibroblast growth factor 10 (Homo sapiens) (UniProt O15520)', 'composite z-score', 0.588);

Would you mind listing composite z-score for each of the following compounds?
1. Cc1nc2cc(Br)ccc2c(=O)n1Cc1cccc(O)c1
2. CN(C)C(=O)[C@@]1(Cc2ccccc2N=[N+]=[N-])N=C(c2ccc(OCCCO)cc2)O[C@H]1c1ccccc1
3. Cc1ccc(C(C)CC(O)C2C=CC3C(=O)N(c4ccccc4)C(=O)C3N2Nc2ccc(C#N)cc2)o1 (configuration not stated)

Reply:
1: 0.89; 2: 0.607; 3: 1.12

Query: Sample `COc1ccc([Si](C)(C)[C@@H]2[C@@H](CC(=O)N3Cc4ccccc4C[C@H]3CO)O[C@]3(C(=O)N(c4ccccc4)c4ccccc43)[C@H]2C)cc1` — what was its composite z-score?
Reply: 1.09

---

For each record, write down the corresponding z-score.
assay-info: A549 cell viability effects, profiling panel, calcein-AM fluorescence, 48 h, basal (AID 1162); note: test concentration not given here
assay-conditions: higher = more signal
Numbers only.

Worked examples, 6 compounds total:
INSERT INTO assay_data (structure, measured_parameter, readout_value) VALUES
  ('C[C@]1(C(=O)O)c2ccccc2C(=O)N(Cc2ccc(OC(F)(F)F)cc2)[C@H]1c1ccc(CO)cc1', 'z-score', 0.0055),
  ('CC(C)CNC(=O)[C@@]1(c2ccc([N+](=O)[O-])cc2)CC(=O)N(C2CCCCC2)[C@@H]1c1ccc(CO)cc1', 'z-score', -0.0452),
  ('O=C(NCCN1CCOCC1)[C@@H]1c2ccccc2C(=O)N(Cc2ccccc2)[C@H]1c1ccc(CO)cc1', 'z-score', 0.178),
  ('COCCOC(=O)N1C(=O)[C@@]2(c3cc(C#CCC(C(=O)OC)C(=O)OC)ccc31)[C@H](c1ccc(O)cc1)N1[C@H](c3ccccc3)[C@H](c3ccccc3)OC(=O)[C@H]1[C@@H]2C(=O)NC[C@H](O)c1ccccc1', 'z-score', -0.61),
  ('C=C(/C(=C/C[C@@H](OC(C)=O)c1ccc(OCCO)cc1)c1cc(C(=O)OC)ccc1OC)C(C)C', 'z-score', 0.679),
  ('O=C1c2ccccc2[C@](Cc2ccccc2I)(C(=O)NC2CC2)[C@H](c2ccc(CO)cc2)N1Cc1ccccc1C(F)(F)F', 'z-score', 0.319);

# evaluate next
Query: Sample `O=C1C[C@@](C(=O)NCc2ccccc2)(c2ccc([N+](=O)[O-])cc2)[C@@H](c2ccc(CO)cc2I)N1CC12CC3CC(CC(C3)C1)C2` — what was its z-score?
Reply: -1.84

---

assay-info: splicing luciferase reporter signal modulators, primary screen, spliceosome inhibition project, cell-based, HEK293, splice +/- reporter (AID 1101);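 note: HEK293 cells carrying a splicing-competent luciferase reporter gene; test concentration not given here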
assay-conditions: luminescence, 24 h, higher = more signal, called active from +8 up or from −8 down
For each record, write down the corresponding z-score.
One number for each entry.

INSERT INTO results (structure, readout_value) VALUES
  ('CO[C@H]1O[C@H](CO)[C@@H](OC(=O)Nc2ccc(C#N)cc2)[C@@H]2OC(=O)[C@H](Cc3cccc(Br)c3)C/C=C/C[C@@H](Cc3cccc(Br)c3)C(=O)O[C@@H]12', 1.5),
  ('COC(=O)[C@@]1(Cc2ccc(OC)cc2)[C@H]2c3cc(C(=O)N4CCCC4)n(Cc4ccc(OC(F)(F)F)cc4)c3C[C@H]2CN1C(=O)c1ccccc1', -0.886),
  ('CC(C)CNC(=O)[C@@]1(C)c2ccccc2C(=O)N(Cc2cc(C(F)(F)F)cc(C(F)(F)F)c2)[C@H]1c1ccc(CO)cc1', 0.0167);

Would you mind listing z-score for each of the following compounds?
1. CO[C@H]1O[C@H](CO)[C@@H](OC(=O)Nc2cccc(F)c2)[C@H](OC(=O)Nc2ccccc2-c2ccccc2)[C@H]1OC(=O)Nc1ccccc1-c1ccccc1
2. C=C(COC)C(=O)CC[C@H](OC(=O)c1cccnc1)c1ccc(CO)o1

Reply:
1. 4.28
2. 0.591

---

For each record, write down the corresponding composite z-score.
assay-info: small-molecule binders of probe aNOTCH3, primary screen, biochemical, small-molecule microarray, 635/667 nm fluorescence (AID 1120);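 note: probe is a biotin-tagged antibody raised against NOTCH3 rather than NOTCH3 protein; score merges spot fluorescence near 667 nm with spot signal to noise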
assay-conditions: higher = more signal
Answers are plain numbers.

Worked examples, 5 molecules total:
INSERT INTO results (molecule, readout_value) VALUES
  ('CC(C)C[C@@H]1NC(=O)[C@@]23C(=O)N[C@@H](Cc4ccccc4)C2[C@H](C)[C@@]2(C)O[C@H]2C3/C=C/C/C=C\CNC(=O)[C@@H](C)NC1=O (stereo partly specified)', -0.251),
  ('C=C(CCCC)C(=O)CC[C@H](OC(C)=O)c1ccc(OCCO)cc1', -0.292),
  ('C=CCNC(=O)[C@@H]1[C@H]2C(=O)O[C@H](c3ccccc3)[C@H](c3ccccc3)N2[C@H](c2ccc(OCCO)cc2)[C@@]12C(=O)N(C(=O)OCCOC)c1ccc(C#CCCO)cc12', 0.0422),
  ('COCCOC(=O)N1C(=O)[C@@]2(c3cc(C#CCNC(N)=O)ccc31)[C@H](c1ccc(O)cc1)N1[C@H](c3ccccc3)[C@H](c3ccccc3)OC(=O)[C@H]1[C@@H]2C(N)=O', -0.443),
  ('COCCCNC(=O)[C@@]1(c2ccc([N+](=O)[O-])cc2)CC(=O)N(CC23CC4CC(CC(C4)C2)C3)[C@@H]1c1ccc(CO)cc1I', -0.0751);

# evaluate next
Query: Sample `CCOC(=O)C[C@H]1[C@H](OC(=O)c2ccccc2-c2ccccc2)[C@@H](NC(=O)c2ccc3ccccc3n2)c2cc(OCCCO)ccc2N1C(=O)c1ccccc1` — what was its composite z-score?
Reply: 0.038

---

For each record, write down the corresponding composite z-score.
System: Noggin (protein binding on small-molecule microarray)
assay-info: Noggin binders on small-molecule microarray, primary screen, biochemical, 635/667 nm fluorescence (AID 1095);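 note: score merges 667 nm feature fluorescence with signal to noise over triplicate slides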
assay-conditions: 635 nm fluorescence, higher = more signal
Answers are plain numbers.

Worked examples, 3 compounds total:
INSERT INTO assay_data (compound, subject_of_test, readout_value) VALUES
  ('C=C(/C(=C/C[C@H](OC(=O)c1ccncc1)c1ccccc1OCCO)c1cnc2ccccc2c1)C(C)C', 'Noggin (protein binding on small-molecule microarray)', 1.13),
  ('C=CCNC(=O)[C@H]1[C@@H]2C(=O)O[C@@H](c3ccccc3)[C@@H](c3ccccc3)N2[C@@H](c2ccc(O)cc2)[C@]12C(=O)N(C(=O)OCCOC)c1ccc(C#CCC(C(=O)OC)C(=O)OC)cc12', 'Noggin (protein binding on small-molecule microarray)', 1.2),
  ('CC1CC/C=C\[C@H]2OC34C=CCN(C(C)(C)C)C(=O)[C@H]3N(C(CO)C(C)C)C(=O)[C@@H]4C2C(=O)O1 (stereo partly drawn)', 'Noggin (protein binding on small-molecule microarray)', 0.476);

Would you mind listing composite z-score for each of the following compounds?
1. CCN(CC)c1ccc(N2CC=CC34O[C@@H]5/C=C\CCC(C)OC(=O)C5[C@H]3C(=O)N(C(C)CO)[C@@H]4C2=O)cc1 (stereo partly drawn)
2. COC(=O)[C@@]1(Cc2ccccc2CN=[N+]=[N-])N=C(c2ccc(OCCCO)cc2)O[C@H]1c1ccccc1CN=[N+]=[N-]
3. COCCOC(=O)N1C(=O)[C@@]2(c3cc(C#Cc4ccc(OC)cc4)ccc31)[C@H](C(=O)NC[C@H](O)c1ccccc1)[C@H]1C(=O)O[C@H](c3ccccc3)[C@H](c3ccccc3)N1[C@@H]2c1ccc(OCCO)cc1

Reply:
[0.07, -0.56, 1.32]

---

For each record, write down the corresponding z-score.
assay-info: E. coli acrAB mutant growth effects, primary screen, E. coli filamentation inducers, strain DRC39, OD650, 48 h (AID 1179);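 note: screen aims at cell division blockers that make cells filament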
assay-conditions: E. coli DRC39 delta-acrAB growth, higher = more signal, called active from +8 up or from −8 down
Numbers only.

INSERT INTO assay_data (molecule, measured_parameter, readout_value) VALUES
  ('COCCOC(=O)N1C(=O)[C@@]2(c3cc(C#CCC(C(=O)OC)C(=O)OC)ccc31)[C@H](c1ccc(O)cc1)N1[C@H](c3ccccc3)[C@H](c3ccccc3)OC(=O)[C@H]1[C@@H]2C(=O)NC[C@H](O)c1ccccc1', 'z-score', -0.228),
  ('CC(C)(C)OC(=O)CC[C@]12N=C(c3ccc(OCCCO)cc3)O[C@H]1c1ccccc1N(Cc1ccccc1)C2=O', 'z-score', 0.124),
  ('CN(C)CCCCNC(=O)[C@H]1C[C@H]2C(=O)N[C@@H](CCCC[N+](C)(C)C)C(=O)N2[C@H]1c1ccc(O)cc1', 'z-score', 0.56),
  ('C=C(/C(=C/C[C@H](OC(=O)c1ccncc1)c1ccccc1OCCO)c1cnc2ccccc2c1)C(C)C', 'z-score', 0.313),
  ('C=CC[C@H](OC(=O)Nc1ccc(SC)cc1)c1ccc(OCCO)cc1', 'z-score', -0.254),
  ('O=C(CS)NCCCCCCNC(=O)[C@@H]1C[C@@H]2C(=O)NCC(=O)N2[C@@H]1c1ccc(O)cc1', 'z-score', 1.62),
  ('COCCOC(=O)N1C(=O)[C@@]2(c3cc(C#CCC(C(=O)OC)C(=O)OC)ccc31)[C@H](C(=O)NC[C@H](O)c1ccccc1)[C@H]1C(=O)O[C@H](c3ccccc3)[C@H](c3ccccc3)N1[C@@H]2c1ccc(O)cc1', 'z-score', 0.644),
  ('COCCOC(=O)N1C(=O)[C@@]2(c3ccccc31)[C@H](c1ccc(OCCO)cc1)N1[C@H](c3ccccc3)[C@H](c3ccccc3)OC(=O)[C@H]1[C@@H]2C(=O)N1CCCCCCC1', 'z-score', -0.618);

Would you mind listing z-score for each of the following molecules?
1. CCCCCN1CC=CC23O[C@@H]4/C=C\CCC(C)OC(=O)C4[C@H]2C(=O)N(CCCCCCO)[C@@H]3C1=O (stereo partly drawn)
2. Cc1c(NC(=O)/C(C#N)=C/c2ccccc2Cl)c(=O)n(-c2ccccc2)n1C
3. CC(C)CNC(=O)[C@@H]1c2ccccc2C(=O)N(C2CCCCC2)[C@H]1c1ccc(CO)cc1
4. [N-]=[N+]=NCc1ccccc1[C@@H]1OC(c2ccc(OCCCO)cc2)=N[C@]1(Cc1ccccc1N=[N+]=[N-])C(=O)NCCN1CCOCC1

Reply:
0.848
1.36
1.59
-0.215

Would you mind listing z-score for each of the following molecules?
1. CC(C)N1CC=CC23O[C@@H]4/C=C\CCCOC(=O)C4[C@H]2C(=O)N(CCCCCCO)[C@@H]3C1=O (stereo partly drawn)
2. COCCOC(=O)N1C(=O)[C@@]2(c3cc(C#CCNC(N)=O)ccc31)[C@H](c1ccc(OCCO)cc1)N1[C@H](c3ccccc3)[C@H](c3ccccc3)OC(=O)[C@H]1[C@@H]2C(=O)NC[C@H](O)c1ccccc1
3. C#C[C@@H](CC)O[Si](C#CCCCC#N)(C(C)C)C(C)C
4. C=CCN1C(=O)[C@@]2(O[C@@H](CCO)[C@H]([Si](C)(C)c3ccc(OC)cc3)[C@H]2C)c2cc(N3CCOC3=O)ccc21
5. O=C(NCCN1CCOCC1)[C@@H]1c2ccccc2C(=O)N(Cc2ccccc2)[C@H]1c1ccc(CO)cc1
6. COc1ccc([Si](C)(C)[C@@H]2[C@@H](CCn3cc([C@H](O)c4ccccc4)nn3)O[C@]3(C(=O)N(c4ccccc4)c4ccccc43)[C@H]2C)cc1
7. CC(C)CNC(=O)[C@@]1(c2ccc([N+](=O)[O-])cc2)CC(=O)N(C2CCCCC2)[C@@H]1c1ccc(CO)cc1
8. CN1C(=O)C2C=CC(C(O)c3ccc(I)cc3)N(Nc3ccccc3)C2C1=O (stereo not drawn)

Reply:
1. 1.93
2. -0.532
3. 0.173
4. 0.231
5. 0.76
6. -0.502
7. 0.0367
8. -1.4

Would you mind listing z-score for each of the following molecules?
1. CCCCCCCCCCC(O)C1C=CC2C(=O)N(C)C(=O)C2N1Nc1cc(OC)c(OC)c(OC)c1 (stereo not drawn)
2. COCCOC(=O)N1C(=O)[C@@]2(c3cc(C#Cc4ccc(OC)cc4)ccc31)[C@H](C(=O)NC[C@H](O)c1ccccc1)[C@H]1C(=O)O[C@H](c3ccccc3)[C@H](c3ccccc3)N1[C@@H]2c1ccc(OCCO)cc1

Reply:
1: -1.12; 2: -0.35

Would you mind listing z-score for each of the following molecules?
1. O=C1NC(=O)C2C1C=CC(C(O)c1ccccn1)N2Nc1ccc(Cl)cc1Cl (stereo not drawn)
2. [N-]=[N+]=NCc1ccccc1[C@@H]1OC(c2ccc(OCCCO)cc2)=N[C@]1(Cc1ccccc1N=[N+]=[N-])C(=O)N1CCCCC1
3. CCOC(=O)C1=C[C@@H](c2ccccc2)N(S(=O)(=O)c2ccc(C)cc2)[C@H]1c1ccccc1
4. O=C1C2C=CC(C(O)c3ccc(I)cc3)N(Nc3ccccc3)C2C(=O)N1c1ccccc1 (stereo not drawn)
5. O=C1OCCC=C[C@H]2OC34C=CCN(c5ccc(Cl)cc5)C(=O)[C@H]3N(CCCCCCO)C(=O)[C@@H]4C12 (stereo partly drawn)
6. NC(=O)[C@@H]1[C@H]2C(=O)O[C@H](c3ccccc3)[C@H](c3ccccc3)N2[C@H](c2ccc(OCCO)cc2)[C@@]12C(=O)Nc1ccc(C#CCCO)cc12

Reply:
-0.534
0.599
-0.605
-0.28
1.74
0.721
